All figures here come from the NIST ThermoML archive (doi:10.1021/je050389b).

method.summary: xn = mol fraction of the nth substance listed
assay.setup: 288.15 K; 101 kPa; Liquid; x1 = 0.25
recorded.metric: mass density (kg/m3)

{"molecule": "CCCC(=O)OCCC(C)C [3-methylbutyl butanoate] + CCO", "recorded.metric": "mass density", "endpoint.unit": "kg/m3", "recorded.measurement": 830.83}
{"molecule": "CCCCCC(=O)OCC [ethyl hexanoate] + CCO", "recorded.metric": "mass density", "endpoint.unit": "kg/m3", "recorded.measurement": 832.89}
{"molecule": "CCOC(=O)c1ccccc1 [ethyl benzoate] + CCO", "recorded.metric": "mass density", "endpoint.unit": "kg/m3", "recorded.measurement": 912.35}
{"molecule": "CCOC(=O)Cc1ccccc1 [ethyl phenylacetate] + CCO", "recorded.metric": "mass density", "endpoint.unit": "kg/m3", "recorded.measurement": 911.6}
{"molecule": "CCCCCCCC(=O)OCC [ethyl octanoate] + CCO", "recorded.metric": "mass density", "endpoint.unit": "kg/m3", "recorded.measurement": 833.98}
